test system: SF-539 CNS; test: NCI-60 one-dose screen, 48 h (100 = growth as untreated, 0 = no growth, -100 = all killed); conditions: 10 µM unless noted
Compounds without any hit were thinned out: in the full panel of roughly 83,000, 20% have a hit.
quantity.measured: growth (%)
# unit: % | format: bare number

NNC(=O)Cc1ccccc1 : 92.5

Let me know recorded growth for O=[N+]([O-])c1cc(F)c2cccnc2c1O , thanks.
91

Let me know recorded growth for COC(=O)c1cc(Cl)cc([N+](=O)[O-])c1O , thanks.
107

Let me know recorded growth for N#Cc1nc(-c2ccc(Cl)cc2)cc(-c2ccc(Nc3nc(N4CCCCC4)nc(N4CCCCC4)n3)cc2)c1N , thanks.
103

Let me know recorded growth for COc1cc(CN2CCO[C@H](COc3cccc(F)c3)C2)ccc1Cl , thanks.
59.5

Let me know recorded growth for CCCCCCCCNC(C)C(O)c1ccc(SC(C)C)cc1 (stereo unspecified) , thanks.
26.8

Let me know recorded growth for COc1ccc2c(c1)N(CCO)C1=C(C(=O)OC1)C2c1cccc(Br)c1 (stereo unspecified) , thanks.
-6.97

Let me know recorded growth for Oc1ccc(-c2cnc(-c3ccccc3)[nH]2)c(O)c1 , thanks.
107

Let me know recorded growth for Cc1ccc(NC(=O)c2[nH]c(SCCN(C)C)nc2-c2ccc(F)cc2)cc1C#Cc1cnc2cccnn12 , thanks.
-84.4

Let me know recorded growth for COC1CC(N)C2OC(c3ccccc3)OCC2O1 (stereo unspecified) , thanks.
101

Let me know recorded growth for C=CCn1c(SCC(=O)Nc2ccc(/C(C)=N\O)cc2)nnc1-c1cc(-c2ccc(Cl)cc2)nc2ccccc12 , thanks.
15.8

----------
system: SN12C renal; assay: NCI-60 one-dose screen, 48 h; details: 10 µM unless noted
The panel holds about 83,000 compounds, 20% with a hit somewhere; the sample as a whole holds those more often. The source made the active and inactive calls. The calls were made as follows: active = growth percent below 10; inactive = the rest.
Please reply with one of these outcomes: label 1 for active, label 0 for inactive

Solved entries:
CCOC(=O)c1ccc(N(CCC(=O)O)C(C)=O)cc1 : label 0
COc1ccc(-c2nc(-c3cc(OC)cc(OC)c3)[nH]c2-c2ccc(OC)cc2)cc1 : label 0
CC(C)COC(=O)NC(C)(C)C : label 0
COc1ccc2nc(C)cc(Nc3ccccc3O)c2c1 : label 1

Kindly provide the recorded test outcome for the following molecule: COc1cccc(/C=N/N=C(N)N)c1
label 0

Kindly provide the recorded test outcome for the following molecule: CC(=O)c1nn(-c2ccccc2)/c(=N\N=C\c2coc3ccc(F)cc3c2=O)s1
label 0

Kindly provide the recorded test outcome for the following molecule: COc1ccc(C2CC(c3cccc(Nc4ccnc5cc(Cl)ccc45)c3)=NN2c2ccc(Cl)cc2)cc1 (stereo unspecified)
label 0

----------
system: SR leukemia; experiment: NCI-60 one-dose screen, 48 h (100 = growth as untreated, 0 = no growth, -100 = all killed); conditions: 10 µM unless noted
Compounds without any hit were thinned out: in the full panel of roughly 83,000, 20% have a hit.
quantity.measured: growth (%)
# unit: % | format: bare number

Record excerpt, results attached:
COc1ccc(C2CC(c3ccc(Nc4ccnc5cc(Cl)ccc45)cc3)=NN2c2ccccc2)cc1 (centres undefined) : 81
COCCOCCOCc1n(Cc2ccc3ccccc3n2)c2ccccc2[n+]1Cc1ccc2ccccc2c1 : -37.1
CC(=O)Nc1ccc(Cl)cc1Cl : 44.3
Cc1nc2ccc(Nc3nc(Cl)nc(N4CCOCC4)n3)cc2n1Cc1ccccc1 : 18.5
CC[C@H](Nc1nc(C)nc(N)c1C#N)c1nc2cccc(NCc3ccc(C(=O)NO)cc3)c2c(=O)n1-c1ccccc1 : 0.66

Let me know recorded growth for Cc1nn(-c2ccc(Cl)cc2)c(=O)n1CCN1CCOCC1 , thanks.
95.3

Let me know recorded growth for Nc1ccc(C(OC(=O)c2cc3ccccc3c(Cc3c(O)c(C(=O)OC(c4ccc(N)cc4)(c4ccc(N)cc4)c4ccc(N)cc4)cc4ccccc34)c2O)(c2ccc(N)cc2)c2ccc(N)cc2)cc1 , thanks.
13.1

Let me know recorded growth for O=S(=O)(NCC[C@@H]1C[C@H]1c1ccc2ccccc2c1)c1ccc(C(F)(F)F)cc1 , thanks.
92.7

Let me know recorded growth for CC(COC(=O)c1ccccc1)N1CC2CCC(C1)O2 (centres undefined) , thanks.
93.2
